Target: human GPR17 short isoform (Homo sapiens (Human), UniProt Q13304)
Sequence (Q13304 29-367): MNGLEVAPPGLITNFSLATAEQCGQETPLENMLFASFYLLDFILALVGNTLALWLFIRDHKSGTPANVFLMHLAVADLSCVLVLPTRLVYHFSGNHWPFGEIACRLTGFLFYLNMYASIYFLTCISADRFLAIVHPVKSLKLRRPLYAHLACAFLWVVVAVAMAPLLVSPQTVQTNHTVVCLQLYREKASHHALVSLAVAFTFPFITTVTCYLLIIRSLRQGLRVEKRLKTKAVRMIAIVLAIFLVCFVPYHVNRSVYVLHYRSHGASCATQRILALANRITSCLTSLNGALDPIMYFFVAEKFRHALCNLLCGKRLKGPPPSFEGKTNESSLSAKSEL
Test: GPR17 cAMP assay (hGPR17 cAMP, antagonist mode against EC80 of MDL29,951)
Settings: CHO-K1 cells stably expressing human GPR17 short isoform; EC80 of agonist MDL29,951; forskolin 15 μM
endpoint: IC50 (nM)

// solved cases for IC50 follow
- molecule: "COc1nc(NS(=O)(=O)c2c[nH]c3nc(Br)ccc23)nc(OC)c1CCC(F)F"
  assaySystem: "human GPR17 short isoform (Homo sapiens (Human), UniProt Q13304)"
  unitAbbrev: "nM"
  IC50: 16
- molecule: "COc1nc(NS(=O)(=O)c2c[nH]c3cc(Cl)ccc23)nc(OC)c1CC(F)CF (centres unmarked)"
  assaySystem: "human GPR17 short isoform (Homo sapiens (Human), UniProt Q13304)"
  unitAbbrev: "nM"
  IC50: 23
- molecule: "COc1nc(NS(=O)(=O)c2c[nH]c3cc(Cl)ccc23)ncc1CC(F)CF (centres unmarked)"
  assaySystem: "human GPR17 short isoform (Homo sapiens (Human), UniProt Q13304)"
  unitAbbrev: "nM"
  IC50: 47
- molecule: "COc1nc(NS(=O)(=O)c2csc3nc(C(F)F)ccc23)ncc1OCCF"
  assaySystem: "human GPR17 short isoform (Homo sapiens (Human), UniProt Q13304)"
  unitAbbrev: "nM"
  IC50: 1110
- molecule: "COc1nc(NS(=O)(=O)c2c[nH]c3cc(Cl)ccc23)nc(C2CCOCC2)c1Br"
  assaySystem: "human GPR17 short isoform (Homo sapiens (Human), UniProt Q13304)"
  unitAbbrev: "nM"
  IC50: 20800

(1) COc1nc(NS(=O)(=O)c2c[nH]c3cc(C(F)F)ccc23)ncc1OCCF
(2) COc1nc(NS(=O)(=O)c2c[nH]c3c2ccc2scnc23)ncc1CC(F)F
# return whichever of 1 and 2 has the smaller IC50 Please respond with the label that marks your chosen entry.
1
(1: 32 nM, 2: 405 nM)

---

Target: human GPR17 short isoform (Homo sapiens (Human), UniProt Q13304)
Experiment: GPR17 cAMP assay (hGPR17 cAMP, antagonist mode against EC80 of MDL29,951)
Settings: CHO-K1 cells stably expressing human GPR17 short isoform; EC80 of agonist MDL29,951; forskolin 15 μM
pIC50: −log10 of the molar value.
endpoint: pIC50

- compound: "CCc1nc(NS(=O)(=O)c2c[nH]c3cc(Cl)ccc23)nc(OC)c1C [Example 137]"
  measuredResult: 6.35

(1) COCc1nc(NS(=O)(=O)c2c[nH]c3cc(Cl)ccc23)nc(OC)c1Br [Example 81]
(2) CC#Cc1cnc(NS(=O)(=O)c2c[nH]c3cc(Cl)ccc23)nc1OC [Example 29]
(3) COc1nc(NS(=O)(=O)c2c[nH]c3cc(Cl)ccc23)nc(C(C)(F)F)c1Br [Example 82]
(4) COc1nc(NS(=O)(=O)c2c[nH]c3c2ccc2cccnc23)nc(OC)c1OC(F)F [Example 116]
Arrange items by their pIC50 values in increasing order. Returns: the labels listed in the requested order.
1, 3, 2, 4

(A) COc1nc(NS(=O)(=O)c2c[nH]c3cc(Cl)ccc23)ncc1CCC#N [Example 179]
(B) COc1nc(NS(=O)(=O)c2c[nH]c3c2ccc2sncc23)ncc1CC(F)F [Example 282]
Quick check, higher pIC50 between A and B ? Please respond with the label that marks your chosen entry.
A

---

Molecular target: human GPR17 short isoform (Homo sapiens (Human))
Assay: GPR17 cAMP assay (hGPR17 cAMP, antagonist mode against EC80 of MDL29,951)
Settings: CHO-K1 cells stably expressing human GPR17 short isoform; EC80 of agonist MDL29,951; forskolin 15 μM
endpoint: IC50 (nM)

- compound: "COc1nc(NS(=O)(=O)c2c[nH]c3nc(Br)ccc23)nc(OC)c1OCC(F)F"
  assaySystem: "human GPR17 short isoform (Homo sapiens (Human))"
  IC50 / nM: 28
- compound: "COc1nc(NS(=O)(=O)c2c[nH]c3cc(Cl)ccc23)nc(Cl)c1OC"
  assaySystem: "human GPR17 short isoform (Homo sapiens (Human))"
  IC50 / nM: 946
- compound: "COc1nc(NS(=O)(=O)c2c[nH]c3nc(C(F)F)ccc23)nc(OC)c1CCC#N"
  assaySystem: "human GPR17 short isoform (Homo sapiens (Human))"
  IC50 / nM: 46
- compound: "COc1nc(NS(=O)(=O)c2c[nH]c3cc(Cl)ccc23)nc(OC)c1CCF"
  assaySystem: "human GPR17 short isoform (Homo sapiens (Human))"
  IC50 / nM: 13
- compound: "COc1nc(NS(=O)(=O)c2c[nH]c3cc(Cl)ccc23)ncc1OCCC(F)(F)F"
  assaySystem: "human GPR17 short isoform (Homo sapiens (Human))"
  IC50 / nM: 628
- compound: "COCCOc1cnc(NS(=O)(=O)c2c[nH]c3cc(Cl)ccc23)nc1OC"
  assaySystem: "human GPR17 short isoform (Homo sapiens (Human))"
  IC50 / nM: 403

(A) COc1nc(NS(=O)(=O)c2c[nH]c3cc(C4CC4)ccc23)ncc1CC(F)F
(B) COc1nc(NS(=O)(=O)c2c[nH]c3c(Br)c(F)ccc23)ncc1CC(F)F
Quick check, higher IC50 between A and B ? Please respond with the label that marks your chosen entry.
B
(B: 446 nM, A: 75 nM)

(P) COc1nc(NS(=O)(=O)c2c[nH]c3cc(Cl)ccc23)nc(OC)c1OCF
(Q) COc1nc(NS(=O)(=O)c2c[nH]c3cc(Cl)ccc23)nc(C(F)F)c1Br
# return whichever of P and Q has the smaller IC50 Please respond with the label that marks your chosen entry.
P
(P: 94 nM, Q: 521 nM)

(a) COc1nc(NS(=O)(=O)c2c[nH]c3c(N4CCOCC4)c(Cl)ccc23)nc(OC)c1CC(F)F
(b) COc1nc(NS(=O)(=O)c2c[nH]c3cc(Cl)ccc23)nc(C2CC2)c1OCC(F)F
(c) COc1nc(NS(=O)(=O)c2c[nH]c3cc(Cl)ccc23)nc(CC2CC2)c1Br
Returns the items ordered by IC50, from maximum to minimum. Returns: the labels listed in the requested order.
c, a, b

(P) CC#CCOc1cnc(NS(=O)(=O)c2c[nH]c3cc(Cl)ccc23)nc1OC
(Q) COc1nc(NS(=O)(=O)c2c[nH]c3c(Cl)cccc23)ncc1CC(F)F
# return whichever of P and Q has the smaller IC50 Please respond with the label that marks your chosen entry.
P

(1) COc1nc(NS(=O)(=O)c2csc3cc(Cl)ccc23)ncc1CCC#N
(2) COc1nc(NS(=O)(=O)c2csc3nc(C(F)F)ccc23)ncc1CC(F)F
Quick check, higher IC50 between 1 and 2 ? Please respond with the label that marks your chosen entry.
2

(a) COc1nc(NS(=O)(=O)c2c[nH]c3cc(C(F)F)ccc23)nc(OC)c1CC(F)F
(b) COc1nc(NS(=O)(=O)c2c[nH]c3cc(Cl)ccc23)nc(SC)c1OC(F)F
Quick check, higher IC50 between a and b ? Please respond with the label that marks your chosen entry.
b

(a) COc1nc(NS(=O)(=O)c2c[nH]c3cc(Cl)ccc23)ncc1SC(F)F
(b) COc1nc(NS(=O)(=O)c2c[nH]c3cc(Cl)ccc23)ncc1CC(F)F
Quick check, higher IC50 between a and b ? Please respond with the label that marks your chosen entry.
a
(a: 68 nM, b: 19 nM)

(1) COc1nc(NS(=O)(=O)c2c[nH]c3cc(Cl)ccc23)ncc1CC(F)C(F)F (stereo not shown)
(2) COc1nc(NS(=O)(=O)c2c[nH]c3c(OC4CC4)c(Cl)ccc23)ncc1CCC(F)F
Quick check, higher IC50 between 1 and 2 ? Please respond with the label that marks your chosen entry.
1
(1: 90 nM, 2: 45 nM)

---

Assay: Microsome clearance assay, mouse
Details: microsomes
endpoint: microsomal CLint at 1 µM (µL/min/mg)

- compound: "COc1nc(NS(=O)(=O)c2c[nH]c3c(F)c(Cl)ccc23)c(F)cc1OCC(F)F [RE-B, reference compound]"
  endpoint: "microsomal CLint at 1 µM"
  unitAbbrev: "µL/min/mg"
  measuredResult: 26
- compound: "COc1nc(NS(=O)(=O)c2c[nH]c3c(F)c(Cl)ccc23)ncc1OCC(F)F"
  endpoint: "microsomal CLint at 1 µM"
  unitAbbrev: "µL/min/mg"
  measuredResult: 10
- compound: "COc1nc(NS(=O)(=O)c2c[nH]c3cc(Cl)ccc23)c(F)cc1OCCF [RE-A, reference compound]"
  endpoint: "microsomal CLint at 1 µM"
  unitAbbrev: "µL/min/mg"
  measuredResult: 77
- compound: "COc1nc(NS(=O)(=O)c2c[nH]c3cc(Cl)ccc23)ncc1CC(F)F"
  endpoint: "microsomal CLint at 1 µM"
  unitAbbrev: "µL/min/mg"
  measuredResult: 10
- compound: "COc1nc(NS(=O)(=O)c2c[nH]c3cc(Cl)ccc23)ncc1OCCF"
  endpoint: "microsomal CLint at 1 µM"
  unitAbbrev: "µL/min/mg"
  measuredResult: 10
- compound: "COc1nc(NS(=O)(=O)c2c[nH]c3cc(Cl)ccc23)ncc1CCC#N"
  endpoint: "microsomal CLint at 1 µM"
  unitAbbrev: "µL/min/mg"
  measuredResult: 10
- compound: "COc1nc(NS(=O)(=O)c2c[nH]c3cc(Cl)ccc23)ncc1Br"
  endpoint: "microsomal CLint at 1 µM"
  unitAbbrev: "µL/min/mg"
  measuredResult: 10

(I) COc1nc(NS(=O)(=O)c2c[nH]c3cc(Cl)ccc23)c(F)cc1CC(F)F [RE-C, reference compound]
(II) COc1nc(NS(=O)(=O)c2c[nH]c3cc(Cl)ccc23)c(F)cc1CCC#N [RE-D, reference compound]
Quick check, higher microsomal CLint at 1 µM between I and II ? Please respond with the label that marks your chosen entry.
II
